Biological target: Human recombinant MKlp2 motor domain1-519, His tagged (Homo sapiens, UniProt O95235)
Construct: Human recombinant MKlp2 motor domain1-519, His tagged; His; purchased Cytoskeleton MP05
Sequence (O95235 1-519): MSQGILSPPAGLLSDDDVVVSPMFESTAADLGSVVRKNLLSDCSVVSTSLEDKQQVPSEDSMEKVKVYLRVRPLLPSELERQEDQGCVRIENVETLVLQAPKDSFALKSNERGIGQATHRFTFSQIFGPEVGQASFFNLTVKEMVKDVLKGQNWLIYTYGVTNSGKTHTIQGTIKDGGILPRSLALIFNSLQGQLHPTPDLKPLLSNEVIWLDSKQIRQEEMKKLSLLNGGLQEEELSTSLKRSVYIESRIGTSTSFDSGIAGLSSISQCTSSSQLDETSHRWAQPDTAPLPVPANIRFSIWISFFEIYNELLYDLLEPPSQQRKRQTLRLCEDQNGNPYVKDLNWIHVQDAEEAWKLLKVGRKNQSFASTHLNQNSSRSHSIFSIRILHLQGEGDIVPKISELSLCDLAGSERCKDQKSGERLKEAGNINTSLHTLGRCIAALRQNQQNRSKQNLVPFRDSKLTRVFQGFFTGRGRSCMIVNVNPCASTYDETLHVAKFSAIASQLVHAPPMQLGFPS
Test: Microtubule stimulated ATPase activity of the MKlp2 motor domain (Kinesin ELIPA Assay Kit)
Type: biochemical
Conditions: Table 6 (prodrugs, formula II), read-out: MKIp2 IC50
Structures can show the parent of a compound that is named as a salt.
Reported IC50 values are given for each entry in this list.
Measured Property: IC50

INSERT INTO measurements (molecule, measured_property, result) VALUES
  ('COc1ccc(C#N)cc1/C=C(\C#N)c1cn(C(=O)CCC(NC(=O)OC(C)(C)C)C(=O)OC(C)(C)C)c2ccc(Br)cc12 (stereo in doubt)', 'IC50', '5.4 µM'),
  ('COc1ccc(C#N)cc1/C=C(\C#N)c1cn(C(=O)OC(C)(C)C)c2ccc(Br)cc12', 'IC50', '19.6 µM'),
  ('COc1ccc(C#N)cc1/C=C(\C#N)c1cn(C(=O)[C@@H](N)CO)c2ccc(Br)cc12 [Example 74, hydrochloride]', 'IC50', '2.1 µM');

###

Biological target: Human recombinant MKlp2 motor domain1-519, His tagged (Homo sapiens, UniProt O95235)
Construct: Human recombinant MKlp2 motor domain1-519, His tagged; His; purchased Cytoskeleton MP05
Assay: Microtubule stimulated ATPase activity of the MKlp2 motor domain (Kinesin ELIPA Assay Kit)
Format: biochemical
Conditions: MKIp2 IC50 (μM), Table 3, 22° C.
Measured Property: IC50 (µM)

INSERT INTO results (compound, readout_number) VALUES
  ('CC(C)Oc1ccc2[nH]cc(C(C#N)=Cc3cccnc3)c2c1 [W02010/150211-Example 23, reference compound]', 5.2),
  ('COc1ccc2[nH]cc(C(C#N)=Cc3cccc(C#N)c3)c2c1 [W02010/150211-Example 30, reference compound]', 4.4),
  ('CCOc1ccc2[nH]cc(C(C#N)=Cc3cccnc3)c2c1 [W02010/150211-Example 22, reference compound]', 5.2),
  ('COc1ccc2[nH]cc(C(C#N)=Cc3cnccc3C)c2c1 [W02010/150211-Example 31, reference compound]', 2.3),
  ('COc1ccc2[nH]cc(C(C#N)=Cc3ccc(F)nc3)c2c1 [W02010/150211-Example 28, reference compound]', 2.4),
  ('COc1ccc2[nH]cc(C(C#N)=Cc3ccc(OC)nc3)c2c1 [W02010/150211-Example 52, reference compound]', 12.6),
  ('N#CC(=Cc1cccnc1)c1c[nH]c2ccc(Cl)cc12 [W02010/150211-Example 24, reference compound]', 1.1),
  ('COc1ccc2[nH]cc(C(C#N)=Cc3cccnc3)c2c1 [W02010/150211-Example 4, reference compound]', 4.2),
  ('COc1ccc2c(C(C#N)=Cc3cccnc3)c[nH]c2c1 [W02010/150211-Example 26, reference compound]', 26.5),
  ('COc1ccc2[nH]cc(C(C#N)=Cc3cnccc3Cl)c2c1 [W02010/150211-Example 47, reference compound]', 1.6);
